# study.target: integrin α4β7 (Homo sapiens, UniProt P13612+P26010)
# Construct: lymphoma cell strain RPMI-8866 of human B cells, known to express integrin α4β7; endogenous in cells
# Sequence (P13612 34-1032): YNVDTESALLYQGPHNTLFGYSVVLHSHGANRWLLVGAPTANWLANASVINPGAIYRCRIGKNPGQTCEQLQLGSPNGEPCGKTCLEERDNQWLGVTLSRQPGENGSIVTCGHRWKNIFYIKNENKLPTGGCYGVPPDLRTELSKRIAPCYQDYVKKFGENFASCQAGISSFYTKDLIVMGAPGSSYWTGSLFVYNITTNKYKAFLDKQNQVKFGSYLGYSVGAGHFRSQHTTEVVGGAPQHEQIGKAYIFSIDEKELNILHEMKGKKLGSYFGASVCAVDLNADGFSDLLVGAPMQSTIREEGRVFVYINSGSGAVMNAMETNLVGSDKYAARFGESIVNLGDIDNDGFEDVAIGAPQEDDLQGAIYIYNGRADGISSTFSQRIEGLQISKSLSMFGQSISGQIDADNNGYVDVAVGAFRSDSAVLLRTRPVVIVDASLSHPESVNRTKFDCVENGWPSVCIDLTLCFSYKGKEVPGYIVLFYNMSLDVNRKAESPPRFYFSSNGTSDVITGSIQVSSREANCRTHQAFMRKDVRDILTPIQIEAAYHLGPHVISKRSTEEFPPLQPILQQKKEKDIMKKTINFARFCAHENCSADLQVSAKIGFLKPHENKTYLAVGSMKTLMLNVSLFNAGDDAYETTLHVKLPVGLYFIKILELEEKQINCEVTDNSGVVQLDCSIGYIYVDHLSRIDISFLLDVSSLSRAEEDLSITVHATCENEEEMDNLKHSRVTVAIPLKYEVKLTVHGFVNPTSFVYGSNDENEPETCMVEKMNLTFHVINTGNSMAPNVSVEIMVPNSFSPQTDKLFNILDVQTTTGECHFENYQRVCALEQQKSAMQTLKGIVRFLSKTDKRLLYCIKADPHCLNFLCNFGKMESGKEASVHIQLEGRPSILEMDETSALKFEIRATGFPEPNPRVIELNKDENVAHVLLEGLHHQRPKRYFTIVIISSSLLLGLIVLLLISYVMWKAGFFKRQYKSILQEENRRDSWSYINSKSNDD
# Sequence (P26010 20-798): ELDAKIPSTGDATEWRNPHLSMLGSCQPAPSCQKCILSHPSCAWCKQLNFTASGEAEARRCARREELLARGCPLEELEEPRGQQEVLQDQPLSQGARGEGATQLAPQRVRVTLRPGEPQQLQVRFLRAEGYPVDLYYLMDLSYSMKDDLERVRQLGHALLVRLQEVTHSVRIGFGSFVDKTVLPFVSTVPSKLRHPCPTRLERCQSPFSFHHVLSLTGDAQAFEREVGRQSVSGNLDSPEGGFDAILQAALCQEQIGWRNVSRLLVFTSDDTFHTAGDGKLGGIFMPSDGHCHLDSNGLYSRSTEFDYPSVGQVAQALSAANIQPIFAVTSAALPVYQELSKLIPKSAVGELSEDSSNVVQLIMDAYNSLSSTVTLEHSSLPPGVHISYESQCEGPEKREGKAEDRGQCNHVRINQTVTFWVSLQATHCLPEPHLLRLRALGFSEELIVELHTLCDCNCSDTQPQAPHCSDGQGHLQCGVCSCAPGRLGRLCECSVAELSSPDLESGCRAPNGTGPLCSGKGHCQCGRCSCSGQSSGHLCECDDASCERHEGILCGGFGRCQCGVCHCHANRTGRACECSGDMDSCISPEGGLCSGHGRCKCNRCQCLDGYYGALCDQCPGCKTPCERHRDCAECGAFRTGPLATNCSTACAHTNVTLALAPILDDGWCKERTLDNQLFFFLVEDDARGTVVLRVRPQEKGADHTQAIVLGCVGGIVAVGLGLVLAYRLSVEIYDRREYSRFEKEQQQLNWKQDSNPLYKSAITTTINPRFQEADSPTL
# experimental.details: VCAM antagonistic activity (VCAM-1/α4β7 binding assay), RPMI-8866 cells binding to VCAM-1
# test.parameters: RPMI-8866 cells binding to recombinant human VCAM-1, binding buffer with 4 mM MnCl2; 50% binding inhibition; read-out: Antagonistic Activity IC50 α 4 β 7/VCAM
metric: pIC50
Give only the number. pIC50 is defined as minus log10 of concentration in molar units.

Worked cases, pIC50 given:
O=C(N[C@@H](Cc1ccc(N2C(=O)C3=C(CCCC3)C2=O)cc1)C(=O)O)c1c(Cl)cccc1Cl    8.24
O=C(N[C@@H](Cc1ccc(N2C(=O)[C@@H]3[C@H](C2=O)[C@@H]2C=C[C@H]3CC2)cc1)C(=O)O)c1c(Cl)cccc1Cl    7.41
O=C(N[C@@H](Cc1ccc(N2CC=CCC2=O)cc1)C(=O)O)c1c(Cl)cccc1Cl    7.10
Cc1cccc2c1C(=O)N(c1ccc(C[C@H](NC(=O)c3c(Cl)cc(-c4nnn[nH]4)cc3Cl)C(=O)O)cc1)C2=O    9.26

Value lookup for pIC50; key = O=C(N[C@@H](Cc1ccc(N2CC=CC2=O)cc1)C(=O)O)c1c(Cl)cccc1Cl
6.80

State the recorded pIC50 for this entry: Cc1ccc(C)c2c1C(=O)N(c1ccc(C[C@H](NC(=O)c3c(Cl)cccc3Cl)C(=O)O)cc1)C2=O
7.34

Given O=C(N[C@@H](Cc1ccc(N2C(=O)c3ccc([N+](=O)[O-])cc3C2=O)cc1)C(=O)O)c1c(Cl)cccc1Cl , state its recorded pIC50.
7.62
